# Tested on: dental pulp stem cells (DPSC)
# RUN_DESCRIPTION: NCI-60 sulforhodamine B (SRB) cytotoxicity assay, dental pulp stem cells
# Assay type: cell-based, human
# CONDITION_CONTEXT: Homo sapiens, 72 h, read-out: IC50 DPSC
pIC50: −log10 of the molar value.
QUANTITY_NAME: pIC50

[[record]]
sample_smiles = "COc1ccc(/C=C/C(=O)c2ccccc2)cc1"
meas_value = "< 4.40"


----------
# Test system: Huh7
# RUN_DESCRIPTION: NCI-60 sulforhodamine B (SRB) cytotoxicity assay, Huh7
# Format: cell-based, human
# CONDITION_CONTEXT: Homo sapiens, Huh-7, 72 h, read-out: IC50 Huh7
Counter-ions that a name gives are not always drawn.
Listed next: entries and their corresponding IC50.
QUANTITY_NAME: IC50 (µM)

[[record]]
compound = "O=C(/C=C/c1ccccc1)c1ccccc1 [compound 9]"
meas_value = 5.3

[[record]]
compound = "CNC(=O)c1cc(Oc2ccc(NC(=O)Nc3ccc(Cl)c(C(F)(F)F)c3)cc2)ccn1 [Sorafenib, reference compound]"
meas_value = 1.3

[[record]]
compound = "COc1ccc(Cc2nccc3cc(OC)c(OC)cc23)cc1OC [Papaverine hydrochloride, reference compound]"
meas_value = 8.5

[[record]]
compound = "COc1ccc(/C=C/C(=O)c2ccccc2)cc1 [compound 6]"
meas_value = 6.4


----------
# Test system: SNU475
# RUN_DESCRIPTION: NCI-60 sulforhodamine B (SRB) cytotoxicity assay, SNU475
# Type: cell-based, human
# CONDITION_CONTEXT: Homo sapiens, SNU-475; SRB, 72 h, 2.5–40 μM, triplicate; read-out: IC50 SNU475
pIC50: −log10 of the molar value. Counter-ions that a name gives are not always drawn.
QUANTITY_NAME: pIC50

[[record]]
compound = "COc1ccc(Cc2nccc3cc(OC)c(OC)cc23)cc1OC [Papaverine hydrochloride, reference compound]"
study_target = "SNU475"
measurement_qualifier = "="
meas_value = 4.75

[[record]]
compound = "COc1ccc(C(=O)/C=C/c2cccc([N+](=O)[O-])c2)cc1 [compound 1]"
study_target = "SNU475"
measurement_qualifier = "="
meas_value = 5.52

[[record]]
compound = "COc1ccc(/C=C/C(=O)c2cccc([N+](=O)[O-])c2)cc1 [compound 7]"
study_target = "SNU475"
measurement_qualifier = "<"
meas_value = 4.40

[[record]]
compound = "COc1ccc(/C=C/C(=O)c2ccc(OC)cc2)cc1 [compound 8]"
study_target = "SNU475"
measurement_qualifier = "="
meas_value = 4.67

[[record]]
compound = "O=C(/C=C/c1ccccc1)c1ccccc1 [compound 9]"
study_target = "SNU475"
measurement_qualifier = "="
meas_value = 5.30

[[record]]
compound = "CNC(=O)c1cc(Oc2ccc(NC(=O)Nc3ccc(Cl)c(C(F)(F)F)c3)cc2)ccn1 [Sorafenib, reference compound]"
study_target = "SNU475"
measurement_qualifier = "="
meas_value = 5.12

[[record]]
compound = "COc1ccc(C(=O)/C=C/c2ccccc2)cc1 [compound 3]"
study_target = "SNU475"
measurement_qualifier = "="
meas_value = 4.88

[[record]]
compound = "O=C(/C=C/c1cccc([N+](=O)[O-])c1)c1ccccc1 [compound 4]"
study_target = "SNU475"
measurement_qualifier = "="
meas_value = 4.62

[[record]]
compound = "O=C(/C=C/c1ccc(Cl)cc1)c1ccccc1 [compound 11]"
study_target = "SNU475"
measurement_qualifier = "="
meas_value = 5.05

[[record]]
compound = "O=c1c(O)c(-c2ccc(O)c(O)c2)oc2cc(O)cc(O)c12 [Quercetin, reference compound]"
study_target = "SNU475"
measurement_qualifier = "="
meas_value = 4.94

[[record]]
compound = "COc1ccc(C(=O)/C=C/c2ccc(Cl)cc2)cc1 [compound 10]"
study_target = "SNU475"
measurement_qualifier = "="
meas_value = 4.70

